B1: r4_43_TrROS_Hall (parent)
chain: DLVTIKVPLENLEEIKKAAEKAGFKIVSISYDKENKEVTIVIEKKK

Variants of: B1
Assay: folding stability dG (cDNA display proteolysis); higher = more stable
Conditions: PBS, room temperature
Exercise: state measured folding stability dG for each of the variants provided.
// return numeric value only (unit: kcal/mol, not printed)

Exercise: For the variant shown here, DLVTIKVPLENLEEIKKAAEKAGDKIVSISYDKENKEVTIVIEKKK [F24D] , give the reported folding stability dG.
Solution: 2.47

Exercise: Data request, read-out folding stability dG, for DLVTIKVPLENLEEIKKAAEWAGFKIVSISYDKENKEVTIVIEKKK [K21W]
Solution: 4.37

Exercise: Which folding stability dG reading was recorded for the variant DLVTIKVPLENLEEIKKAAEKAGFKIVSISTDKENKEVTIVIEKKK [Y31T] ?
Solution: 3.15

Exercise: Give its folding stability dG value. Item: DLVTIKNPLENLEEIKKAAEKAGFKIVSISYDKENKEVTIVIEKKK [V7N]
Solution: 2.53
